All figures here come from paper PMC5840146.

- study_system: ERα (Homo sapiens, UniProt P03372)
- Construct: purchased Life Technologies
- Sequence (P03372 1-595): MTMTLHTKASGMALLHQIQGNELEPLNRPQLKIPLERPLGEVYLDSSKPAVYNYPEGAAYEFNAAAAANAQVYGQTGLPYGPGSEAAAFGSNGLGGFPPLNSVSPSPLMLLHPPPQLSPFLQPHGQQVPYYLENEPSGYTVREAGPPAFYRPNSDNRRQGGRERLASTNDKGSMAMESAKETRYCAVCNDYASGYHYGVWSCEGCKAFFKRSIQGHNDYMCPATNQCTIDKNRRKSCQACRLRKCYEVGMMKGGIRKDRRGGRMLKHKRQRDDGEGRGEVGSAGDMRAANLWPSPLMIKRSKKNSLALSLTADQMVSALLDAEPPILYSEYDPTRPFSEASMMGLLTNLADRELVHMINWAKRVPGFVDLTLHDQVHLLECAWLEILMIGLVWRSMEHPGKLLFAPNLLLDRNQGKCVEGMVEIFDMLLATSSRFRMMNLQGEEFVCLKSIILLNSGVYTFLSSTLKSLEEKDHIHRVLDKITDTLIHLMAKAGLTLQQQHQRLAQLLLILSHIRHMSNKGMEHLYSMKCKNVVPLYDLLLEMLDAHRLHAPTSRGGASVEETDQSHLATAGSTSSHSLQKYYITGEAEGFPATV
- procedure_text: PolarScreen ER Alpha Competitor Assay (fluorescence polarization)
- Type: binding
- measurement_conditions: 10 μM
measure_name: inhibition at 10 µM
Field note: include the unit after the figure.

{"columns": ["compound", "study_system", "inhibition at 10 µM"],
 "data": [
  ["COc1cccc(-c2cc3ccccc3oc2=O)c1 [derivative 11, 3-(3-methoxyphenyl)-2H-chromen-2-one]", "ERα (Homo sapiens, UniProt P03372)", "0.29%"],
  ["COc1ccc2cc(-c3ccc(O)c(F)c3)c(=O)oc2c1 [derivative 20]", "ERα (Homo sapiens, UniProt P03372)", "86.1%"],
  ["Cc1ccc2oc(=O)c(-c3ccc(C(F)(F)F)cc3)cc2c1 [derivative 5]", "ERα (Homo sapiens, UniProt P03372)", "1.08%"],
  ["COc1ccc2oc(=O)c(-c3ccc(O)c(F)c3)cc2c1 [derivative 22]", "ERα (Homo sapiens, UniProt P03372)", "55.4%"],
  ["O=c1oc2ccc(O)cc2cc1-c1ccc(F)cc1 [derivative 24]", "ERα (Homo sapiens, UniProt P03372)", "0%"],
  ["COc1ccc2cc(-c3cc(F)c(F)cc3F)c(=O)oc2c1 [derivative 16]", "ERα (Homo sapiens, UniProt P03372)", "8.8%"],
  ["COc1ccc(-c2cc3ccc(O)cc3oc2=O)cc1 [derivative 12]", "ERα (Homo sapiens, UniProt P03372)", "91.3%"],
  ["COc1ccc2oc(=O)c(-c3ccc(F)cc3)cc2c1 [derivative 21]", "ERα (Homo sapiens, UniProt P03372)", "0%"]
]}

Asked: API: value(readout=inhibition at 10 µM, system=ERα (Homo sapiens, UniProt P03372)) for record COc1ccc2oc(=O)c(-c3cc(F)c(F)cc3F)cc2c1 [derivative 15]
Given back: 0%

Asked: Entry COc1cccc(-c2cc3cc(OC)ccc3oc2=O)c1 [derivative 8] please
Given back: 0%

Asked: Entry Cc1ccc2oc(=O)c(-c3ccc(F)cc3)cc2c1 [derivative 23] please
Given back: 0%

Asked: Entry COc1ccc2oc(=O)c(-c3ccc(N(C)C)cc3)cc2c1 [derivative 18] please
Given back: 0%
